Collected melting point values appear next to each entry.
RECORDED_METRIC: melting point

* Oc1cc(Cl)nnc1Oc1cccc2c1OCO2 | 206 to 211 °C
* Oc1cc(Cl)nnc1Oc1cccc(C2CC2)c1 | 179 to 181 °C
* Cc1ccccc1Oc1nnc(Cl)cc1OS(=O)(=O)c1ccc([N+](=O)[O-])cc1 | 166 to 169 °C
* Oc1cc(Cl)nnc1Oc1c(C2CC2)ccc2c1CCC2 | 218 to 220 °C
* Cc1ccc(C2CC2)c(Oc2nnc(Cl)cc2O)c1 | 150 to 159 °C
* Cc1cc(OC(=O)c2ccccc2)ccc1Oc1nnc(Cl)cc1OC(=O)c1ccccc1 | 118 to 120 °C
* CCS(=O)(=O)Oc1cc(Cl)nnc1Oc1c(C)cccc1C1CC1 | 96 to 97 °C
* Cc1c(Cl)ccc(Br)c1Oc1nnc(Cl)cc1O | 254 to 260 °C
* Cc1cc(O)c(Oc2ccccc2C(C)C)nn1 | 259 to 260 °C

* * *

Collected melting point values appear next to each entry.
RECORDED_METRIC: melting point

* Cc1ccc(C)c(C2CC2)c1Oc1nnc(Cl)cc1O | 171 to 175 °C
* Oc1cc(Cl)nnc1Oc1cc(Cl)ccc1C1CC1 | 194 to 195 °C
* Cc1ccc(C)c(Oc2nnc(Cl)cc2O)c1 | 80 to 83 °C
* COc1c(C)cc(C)c(C)c1Oc1nnc(Cl)cc1O | 209 to 210 °C
* CC1COc2cccc(Oc3nnc(Cl)cc3O)c21 (stereo not shown) | 238 to 245 °C
* Cc1cc2c(c(Oc3nnc(Cl)cc3O)c1C)CCC2 | 210 to 213 °C
* Oc1cc(Cl)nnc1Oc1cccc2c1CC2 | 145 to 155 °C
* Cc1ccc(Oc2nnc(Cl)cc2O)c(C(C)(C)C)c1 | 230 to 236 °C
* CCc1cccc(Cl)c1Oc1nnc(Cl)cc1O | 194 to 195 °C
* COc1ccccc1Oc1nnc(Cl)cc1O | 191 to 194 °C
* CCc1c(C)cc(C)c(C)c1Oc1nnc(Cl)cc1O | 188 to 195 °C
* CCC(C)c1cccc(C)c1Oc1nnc(Cl)cc1O (stereo not shown) | 187 to 189 °C
* CCOc1ccccc1Oc1nnc(Cl)cc1O | 155 to 175 °C
* Cc1ccc2c(c1Oc1nnc(Cl)cc1O)COC2 | 188 to 200 °C
* CC1(c2ccccc2Oc2nnc(Cl)cc2O)CC1 | 196 to 198 °C
* Cc1cccc(C2CC2)c1Oc1nnc(Cl)cc1OC(=O)n1c2ccccc2c2ccccc21 | 157 to 159 °C
* Oc1cc(Cl)nnc1Oc1cccc(I)c1 | 202 to 203 °C
* C=C(C)c1ccccc1Oc1nnc(Cl)cc1O | 187 to 188 °C
* C=Cc1cc(O)c(Oc2ccccc2C)nn1 | 195 to 197 °C
* CC1CC1c1ccccc1Oc1nnc(Cl)cc1O (stereo not shown) | 192 to 208 °C
* CC(C)(C)c1ccc(Oc2nnc(Cl)cc2O)cc1 | 224 to 225 °C
* Oc1cc(Cl)nnc1Oc1ccccc1-c1nc2ccccc2o1 | 165 to 167 °C
* Cc1ccc(S(=O)(=O)Oc2cc(Cl)nnc2Oc2ccccc2-c2ccccc2)cc1 | 106 to 108 °C
* Cc1cccc(C2CC2)c1Oc1nnc(Cl)cc1OC(=O)c1cc2ccccc2s1 | 105 to 107 °C
* CSc1c(C)cc(C)cc1Oc1nnc(Cl)cc1O | 213 to 214 °C
* C=CCc1ccccc1Oc1nnc(Cl)cc1O | 200 to 202.5 °C
* Oc1cc(Cl)nnc1Oc1ccccc1-c1ccccc1 | 98 to 100 °C
* Cc1cccc(C2CC2)c1Oc1nnc(Cl)cc1OC(=O)c1ccc(C(=O)Oc2cc(Cl)nnc2Oc2c(C)cccc2C2CC2)cc1 | 247 to 249 °C
* CS(=O)(=O)Oc1cc(Cl)nnc1Oc1ccccc1C1CC1 | 162 to 172 °C
* N#C/C=C/c1ccccc1Oc1nnc(Cl)cc1O | 190 to 192 °C
* Oc1cc(Cl)nnc1Oc1ccccc1Cc1ccccc1 | 185 to 187 °C
* Oc1cc(Cl)nnc1Oc1cccc(-c2ccco2)c1 | 200 to 202 °C
* Cc1ccccc1Oc1nnccc1O | 169 to 171 °C
* Cc1ccc(S(=O)(=O)Oc2cc(Cl)nnc2Oc2ccc(C(C)(C)C)cc2Br)cc1 | 110 to 112 °C
* Cc1ccc(S(=O)(=O)Oc2cc(Cl)nnc2Oc2ccccc2C)cc1 | 102 to 104 °C
* Cc1cc(C)c(Br)c(Oc2nnc(Cl)cc2O)c1 | 240 to 244 °C
* Cc1ccccc1Oc1cc(O)c(Oc2ccccc2C)nn1 | 247 to 250 °C
